Data provenance: patent US20210395394A1

Biological target: Pan-species-specific antigen Plasmodium Lactate DeHydrogenase (Pan-PLDH) protein
Test: indirect ELISA, recombinant MA protein coated 1 ug/ml, antibody 0.32 ng/ml
PROPERTY: OD value at 450 nm (refer to 630 nm)

Prompt: Quick one: OD value at 450 nm (refer to 630 nm) for Mutation 2 (antibody, mouse IgG2b, kappa, V domains shown) VH: QVQLQQPGAELVRPGASVKLSCKASGSSFTNYFMNWVKQRPGQGLEWIGMIHPSESETRINQKFKDKATLTVDKSSSTAYMQLSSLTAEDSAVYYCAKSGDFYTSYFDYWGQGTTLTVSS VL: DIQLTQSPASLSASVGETVTITCRGSGNLHNYLAWYQQKQGKSPQLLVYNARTIADGVPSRFSGSGSGTQYSLKINSLQPEDFGSYYCQSFWSSYTFGGGTKLEIKR ?
Completion: 0.231 OD

Prompt: Item under review: Mutation 4 (antibody, mouse IgG2b, kappa, V domains shown) VH: QVQLQQPGAELVRPGASVKLSCKASGSSFTNYFMNWVKQRPGQGLEWIGMIHPSESETRINQKFKDKATLTVDKSSSTAYMQLSSLTAEDSAVYYCAKSGDFYTSYWDYWGQGTTLTVSS VL: DIQLTQSPASLSASVGETVTITCRGSGNLHNYIAWYQQKQGKSPQLLVYNARTIADGVPSRFSGSGSGTQYSLKINSLQPEDFGSYYCQSFWSTYTFGGGTKLEIKR . Reported OD value at 450 nm (refer to 630 nm)?
Completion: 0.211 OD

Prompt: Returns the measured OD value at 450 nm (refer to 630 nm) for the input binder. Input: anti-Pan-PLDH 9G7 monoclonal antibody (antibody, mouse IgG2b, kappa, V domains shown) VH: QVQLQQPGAELVRPGASVKLSCKASGSSFTNYFMNWVKQRPGQGLEWIGMINPSESETRINQKFKDKATLTVDKSSSTAYMQLSSLTAEDSAVYYCAKSGDFYTSYWDYWGQGTTLTVSS VL: DIQLTQSPASLSASVGETVTITCRGSGNLHNYIAWYQQKQGKSPQLLVYNARTIADGVPSRFSGSGSGTQYSLKINSLQPEDFGSYYCQSFWSSYTFGGGTKLEIKR
Completion: 0.173 OD

Prompt: Fill in the blank: the reported OD value at 450 nm (refer to 630 nm) of Mutation 1 (antibody, mouse IgG2b, kappa, V domains shown) VH: QVQLQQPGAELVRPGASVKLSCKASGSSFTNYWMNWVKQRPGQGLEWIGMIHPSESETRINQKFKDKATLTVDKSSSTAYMQLSSLTAEDSAVYYCAKSGDFYTSYFDYWGQGTTLTVSS VL: DIQLTQSPASLSASVGETVTITCRGSGNLHNYLAWYQQKQGKSPQLLVYNARTIADGVPSRFSGSGSGTQYSLKINSLQPEDFGSYYCQSFWSTYTFGGGTKLEIKR is ____.
Completion: 0.27 OD

Prompt: Request the reported OD value at 450 nm (refer to 630 nm) associated with Mutation 3 (antibody, mouse IgG2b, kappa, V domains shown) VH: QVQLQQPGAELVRPGASVKLSCKASGSSFTNYWMNWVKQRPGQGLEWIGMINPSESETRINQKFKDKATLTVDKSSSTAYMQLSSLTAEDSAVYYCAKSGDFYTSYFDYWGQGTTLTVSS VL: DIQLTQSPASLSASVGETVTITCRGSGNLHNYIAWYQQKQGKSPQLLVYNARTIADGVPSRFSGSGSGTQYSLKINSLQPEDFGSYYCQSFWSTYTFGGGTKLEIKR
Completion: 0.255 OD
